TARGET_OR_SYSTEM: H1047R PIK3CA enzyme (Homo sapiens, UniProt P42336, H1047R)
Sequence (P42336 whole entry H1047R): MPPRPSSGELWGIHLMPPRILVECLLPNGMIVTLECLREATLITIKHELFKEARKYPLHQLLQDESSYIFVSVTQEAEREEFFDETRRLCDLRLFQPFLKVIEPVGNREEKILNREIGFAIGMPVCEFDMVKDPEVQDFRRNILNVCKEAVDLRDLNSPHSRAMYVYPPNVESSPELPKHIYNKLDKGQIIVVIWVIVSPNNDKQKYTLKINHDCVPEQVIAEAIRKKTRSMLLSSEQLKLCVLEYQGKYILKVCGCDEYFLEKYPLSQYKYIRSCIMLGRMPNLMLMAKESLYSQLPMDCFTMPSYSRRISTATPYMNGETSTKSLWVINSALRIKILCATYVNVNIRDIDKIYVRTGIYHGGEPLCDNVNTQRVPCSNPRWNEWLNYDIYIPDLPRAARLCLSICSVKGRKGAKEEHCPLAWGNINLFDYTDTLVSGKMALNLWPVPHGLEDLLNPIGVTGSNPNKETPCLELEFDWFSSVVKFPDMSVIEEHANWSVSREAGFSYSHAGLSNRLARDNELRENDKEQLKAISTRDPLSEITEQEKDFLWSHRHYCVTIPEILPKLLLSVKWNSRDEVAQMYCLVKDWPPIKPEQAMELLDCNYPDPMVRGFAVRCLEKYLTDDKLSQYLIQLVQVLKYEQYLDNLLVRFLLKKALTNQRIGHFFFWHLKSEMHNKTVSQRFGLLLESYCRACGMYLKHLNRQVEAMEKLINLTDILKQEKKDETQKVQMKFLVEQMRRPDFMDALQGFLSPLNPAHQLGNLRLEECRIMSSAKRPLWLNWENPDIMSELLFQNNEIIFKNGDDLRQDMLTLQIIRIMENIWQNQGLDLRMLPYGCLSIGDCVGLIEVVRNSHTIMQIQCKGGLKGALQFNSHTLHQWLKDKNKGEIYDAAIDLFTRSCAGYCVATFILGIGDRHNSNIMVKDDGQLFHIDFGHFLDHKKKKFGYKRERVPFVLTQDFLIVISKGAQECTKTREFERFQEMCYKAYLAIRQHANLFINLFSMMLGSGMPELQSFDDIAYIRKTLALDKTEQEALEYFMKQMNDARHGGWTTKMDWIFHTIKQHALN
Sequence (P27986 whole entry partner): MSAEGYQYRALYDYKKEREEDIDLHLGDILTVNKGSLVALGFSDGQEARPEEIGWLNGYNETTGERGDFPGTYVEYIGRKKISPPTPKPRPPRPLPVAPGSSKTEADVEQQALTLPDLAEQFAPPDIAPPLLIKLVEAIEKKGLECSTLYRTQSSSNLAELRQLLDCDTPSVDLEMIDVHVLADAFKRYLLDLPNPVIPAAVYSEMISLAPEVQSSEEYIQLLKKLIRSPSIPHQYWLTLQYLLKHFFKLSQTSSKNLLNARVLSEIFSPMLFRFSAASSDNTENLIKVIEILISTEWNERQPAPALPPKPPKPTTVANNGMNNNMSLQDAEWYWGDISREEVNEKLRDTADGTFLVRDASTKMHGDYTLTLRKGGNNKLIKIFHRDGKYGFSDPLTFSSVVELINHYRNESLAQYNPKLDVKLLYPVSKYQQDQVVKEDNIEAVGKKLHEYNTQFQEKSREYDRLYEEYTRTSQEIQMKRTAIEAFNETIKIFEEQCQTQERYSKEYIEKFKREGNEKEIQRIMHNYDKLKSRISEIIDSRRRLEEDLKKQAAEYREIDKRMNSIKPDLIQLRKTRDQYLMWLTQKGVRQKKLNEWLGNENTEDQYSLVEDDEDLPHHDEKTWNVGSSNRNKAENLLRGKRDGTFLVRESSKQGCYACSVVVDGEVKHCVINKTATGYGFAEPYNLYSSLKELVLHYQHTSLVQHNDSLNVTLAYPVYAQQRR
PROCEDURE_DETAILS: ADP-Glo Biochemical PIK3CA Kinase Assay
pIC50: −log10 of the molar value.
We begin with a simple list: items and their reported pIC50.

# example entries with known answers
| MOLECULE | TARGET_OR_SYSTEM | REPORTED |
| --- | --- | --- |
| O=C(Nc1cc(CCC(F)(F)F)nc2c1C(c1cc(F)ccc1Cl)NC2=O)c1cc(F)cc(C(F)(F)F)c1 (stereo not shown) [Compound I-529] | H1047R PIK3CA enzyme (Homo sapiens, UniProt P42336, H1047R) | ≥ 7.00 |
| C[C@]1(C(=O)Nc2cc(Br)cc3c2[C@@H](c2cc(F)ccc2Cl)NC3=O)CCC[C@@H](C(F)(F)F)C1 (single isomer, unassigned) [Compound I-2261] | H1047R PIK3CA enzyme (Homo sapiens, UniProt P42336, H1047R) | ≥ 7.00 |
| O=C(Nc1cc(OCC(O)CO)cc2c1C(c1cc(F)ccc1Cl)NC2=O)c1cc(F)cc(C(F)(F)F)c1 (stereo not shown) [Compound I-1341] | H1047R PIK3CA enzyme (Homo sapiens, UniProt P42336, H1047R) | ≥ 7.00 |
| Cn1nc(C(F)(F)F)cc1-c1cc(NC(=O)c2cc(F)cc(C(F)(F)F)c2)c2c(c1)C(=O)NC2c1cc(F)ccc1Cl (stereo not shown) [Compound I-1865] | H1047R PIK3CA enzyme (Homo sapiens, UniProt P42336, H1047R) | ≥ 7.00 |
| O=C(Nc1cc(-c2ccn3ncnc3c2F)cc2c1[C@H](c1cc(F)ccc1Cl)NC2=O)c1cc(F)cc(C(F)(F)F)c1 [Compound I-1765] | H1047R PIK3CA enzyme (Homo sapiens, UniProt P42336, H1047R) | ≥ 7.00 |

Name the reported pIC50 value associated with the molecule Cc1ccccc1[C@@H]1NC(=O)c2nccc(NC(=O)N3C[C@H](C)c4ccccc43)c21 (single isomer, unassigned) [Compound I-300]
6.30 to 7.00

Request: Cc1ccccc1C1NC(=O)c2c(C(N)=O)ccc(NC(=O)c3cc(F)cc(C(F)(F)F)c3)c21 (stereo not shown) [Compound I-339]
6.30 to 7.00
